- assayed_system: GluD1-A650T (Homo sapiens, UniProt Q9ULK0, A650T)
- Construct: expressed in transfected cells; host or cells: Xenopus laevis oocytes injected with cRNA
- assay_info: TEVC of constitutive current, Xenopus oocytes expressing GluD1-A650T
- Format: cell-based
- condition_context: read-out: D-serine EC50 [95% CI]; modulation of constitutive current; potentiated by D-serine (not inhibited)
reported_metric: EC50

// EC50 value for N[C@H](CO)C(=O)O [D-serine] : 130 µM

###

- assayed_system: GluD2-A654T-R710W (Rattus norvegicus, UniProt Q63226, A654T/R710W)
- assay_info: TEVC of constitutive current, Xenopus oocytes expressing GluD2-A654T-R710W
- condition_context: potentiation of constitutive current; read-out: Ca2+ EC50 [95% CI]
reported_metric: EC50 (µM)
State the answer as a number, implicitly in µM.

Per the record, [Ca+2] [Ca^2+] has EC50 of 80

###

- assayed_system: GluD2-T649A (Rattus norvegicus, UniProt Q63226, T649A)
- Construct: expressed in transfected cells; host or cells: Xenopus laevis oocytes injected with cRNA
- assay_info: TEVC of constitutive current, Xenopus oocytes expressing GluD2-T649A
- Assay type: cell-based
- condition_context: potentiation of constitutive current; read-out: Ca2+ EC50 [95% CI]
reported_metric: EC50 (µM)
Please reply with the bare figure in µM and do not write the unit itself.

response.value for [Ca+2] [Ca^2+] (field: EC50) = 290

###

- assayed_system: GluD2-A654T (Rattus norvegicus, UniProt Q63226, A654T)
- Construct: expressed in transfected cells; host or cells: Xenopus laevis oocytes injected with cRNA
- assay_info: TEVC of constitutive current, Xenopus oocytes expressing GluD2-A654T (lurcher)
- Assay type: cell-based
- condition_context: inhibition of constitutive current; read-out: Memantine IC50
reported_metric: pIC50
pIC50 is a log-scale quantity: -log10 of the concentration expressed in molar.

Reported pIC50 ( CC12CC3CC(C)(C1)CC(N)(C3)C2 [Memantine, memantine] ) = 4.05

###

- assayed_system: GluD2-A654T (Rattus norvegicus, UniProt Q63226, A654T)
- assay_info: TEVC of constitutive current, Xenopus oocytes expressing GluD2-A654T (lurcher)
- condition_context: potentiation of constitutive current; read-out: Ca2+ EC50 [95% CI]
reported_metric: EC50
# output: numeric value plus its unit

Item [Ca+2] [Ca^2+] ; assay system GluD2-A654T (Rattus norvegicus, UniProt Q63226, A654T); EC50 reported as 150 µM

###

- assayed_system: GluD2-A654T (Rattus norvegicus, UniProt Q63226, A654T)
- Construct: expressed in transfected cells; host or cells: Xenopus laevis oocytes injected with cRNA
- assay_info: TEVC of constitutive current, Xenopus oocytes expressing GluD2-A654T (lurcher)
- Assay type: cell-based
- condition_context: read-out: Pentamidine IC50
reported_metric: pIC50
Quick note: pIC50 values are minus log10 of concentrations in mol/L.

The recorded pIC50 for N=C(N)c1ccc(OCCCCCOc2ccc(C(=N)N)cc2)cc1 [Pentamidine, pentamidine] is 5.02

###

- assayed_system: GluD2-A654D (Rattus norvegicus, UniProt Q63226, A654D)
- Construct: expressed in transfected cells; host or cells: Xenopus laevis oocytes injected with cRNA
- Sequence (Q63226 24-1007 A654D): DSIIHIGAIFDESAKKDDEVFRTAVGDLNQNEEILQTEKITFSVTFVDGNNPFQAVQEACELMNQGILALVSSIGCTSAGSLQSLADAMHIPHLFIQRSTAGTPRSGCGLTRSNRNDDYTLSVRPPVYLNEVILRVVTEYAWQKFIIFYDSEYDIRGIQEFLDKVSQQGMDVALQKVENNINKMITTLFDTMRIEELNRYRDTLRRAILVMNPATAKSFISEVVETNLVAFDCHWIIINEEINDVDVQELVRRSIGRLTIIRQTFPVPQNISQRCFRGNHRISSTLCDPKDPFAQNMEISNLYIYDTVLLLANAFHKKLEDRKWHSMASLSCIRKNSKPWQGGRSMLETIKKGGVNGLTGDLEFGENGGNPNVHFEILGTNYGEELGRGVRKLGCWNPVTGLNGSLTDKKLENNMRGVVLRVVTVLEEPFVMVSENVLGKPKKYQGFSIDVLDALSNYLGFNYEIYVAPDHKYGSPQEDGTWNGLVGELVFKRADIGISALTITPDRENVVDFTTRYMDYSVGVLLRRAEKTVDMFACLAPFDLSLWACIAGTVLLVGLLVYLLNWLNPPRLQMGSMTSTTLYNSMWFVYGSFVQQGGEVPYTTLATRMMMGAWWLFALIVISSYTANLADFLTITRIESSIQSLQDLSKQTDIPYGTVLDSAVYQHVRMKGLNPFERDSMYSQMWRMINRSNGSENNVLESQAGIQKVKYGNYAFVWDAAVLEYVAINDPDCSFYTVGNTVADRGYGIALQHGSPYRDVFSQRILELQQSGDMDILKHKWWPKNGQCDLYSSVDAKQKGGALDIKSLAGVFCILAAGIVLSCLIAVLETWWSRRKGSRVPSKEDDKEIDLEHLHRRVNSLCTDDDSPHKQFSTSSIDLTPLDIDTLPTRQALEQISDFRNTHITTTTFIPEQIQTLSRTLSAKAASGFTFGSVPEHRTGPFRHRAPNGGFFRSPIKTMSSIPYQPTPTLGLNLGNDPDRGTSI
- assay_info: TEVC of constitutive current, Xenopus oocytes expressing GluD2-A654D
- Assay type: cell-based
- condition_context: read-out: Pentamidine IC50
reported_metric: pIC50
Expect pIC50 as a plain number equal to -log10 of the molar concentration.

Kindly note the recorded pIC50 for N=C(N)c1ccc(OCCCCCOc2ccc(C(=N)N)cc2)cc1 [Pentamidine, pentamidine] , which is 5.43

###

- assayed_system: GluD2-A654T-D535E (Rattus norvegicus, UniProt Q63226, A654T/D535E)
- assay_info: TEVC of constitutive current, Xenopus oocytes expressing GluD2-A654T-D535E
- condition_context: modulation of constitutive current; inhibited by Ca2+ (not potentiated); read-out: Ca2+ EC50 [95% CI]
reported_metric: EC50 (mM)
A number alone suffices; assume mM.

The measured EC50 that "[Ca+2]" showed for GluD2-A654T-D535E (Rattus norvegicus, UniProt Q63226, A654T/D535E) is 5.6

###

- assayed_system: GluD1-A650T (Homo sapiens, UniProt Q9ULK0, A650T)
- Construct: expressed in transfected cells; host or cells: Xenopus laevis oocytes injected with cRNA
- Sequence (Q9ULK0 21-1009 A650T): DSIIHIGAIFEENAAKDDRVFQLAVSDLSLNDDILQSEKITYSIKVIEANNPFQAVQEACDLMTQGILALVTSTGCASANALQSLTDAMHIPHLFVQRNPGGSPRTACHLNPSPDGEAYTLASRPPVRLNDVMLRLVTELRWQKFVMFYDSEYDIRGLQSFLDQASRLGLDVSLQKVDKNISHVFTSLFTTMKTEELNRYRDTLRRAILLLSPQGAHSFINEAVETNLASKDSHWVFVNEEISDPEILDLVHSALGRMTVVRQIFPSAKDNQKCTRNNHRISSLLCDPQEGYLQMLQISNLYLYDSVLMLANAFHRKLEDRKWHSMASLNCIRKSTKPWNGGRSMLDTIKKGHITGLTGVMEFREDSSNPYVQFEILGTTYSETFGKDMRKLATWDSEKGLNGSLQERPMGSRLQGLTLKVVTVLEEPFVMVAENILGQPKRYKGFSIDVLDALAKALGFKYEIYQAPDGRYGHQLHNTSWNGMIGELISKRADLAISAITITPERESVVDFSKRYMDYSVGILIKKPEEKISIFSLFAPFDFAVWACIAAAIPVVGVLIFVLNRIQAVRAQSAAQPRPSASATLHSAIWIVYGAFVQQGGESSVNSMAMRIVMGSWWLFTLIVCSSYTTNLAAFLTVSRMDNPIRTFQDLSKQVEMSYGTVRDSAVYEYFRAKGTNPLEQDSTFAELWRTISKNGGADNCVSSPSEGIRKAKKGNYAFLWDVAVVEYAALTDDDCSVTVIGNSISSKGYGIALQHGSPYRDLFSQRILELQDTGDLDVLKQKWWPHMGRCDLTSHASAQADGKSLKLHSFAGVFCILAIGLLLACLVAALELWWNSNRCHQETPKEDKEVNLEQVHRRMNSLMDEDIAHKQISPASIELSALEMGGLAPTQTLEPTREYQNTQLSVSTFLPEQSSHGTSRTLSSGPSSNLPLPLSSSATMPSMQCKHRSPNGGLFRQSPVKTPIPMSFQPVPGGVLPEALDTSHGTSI
- assay_info: TEVC of constitutive current, Xenopus oocytes expressing GluD1-A650T
- Type: cell-based
- condition_context: modulation of constitutive current; inhibited by Ca2+ (not potentiated); read-out: Ca2+ EC50 [95% CI]
reported_metric: pEC50
Hey, just a heads up that pEC50 is the negative log base 10 of the concentration in molar.

Consider "[Ca+2]" . Its measured pEC50 is 3.54

src = paper PMC10840383
